# target-under-test: T1, human serum albumin (human, UniProt P02768 25-609)
# T1 construct: also called HSA
# experimental-details: SPR (Biacore), ratio of the off rates at the two pH
Listed next: entries and their corresponding Ratio pH 7/pH 5.
Please give only the number in your answer, with no unit.

- binder: "4C3 (VHH, Tested as periplasmic extract) VHH: EVQLVESGGGLVQAGGSLRLSCAASGRTFSSYAMAWFRQAPGEEREFVATISVSGGYTYYADSVKGRFTISRDNAKNTVYLQMNTLKPEDTAVYYCAAGDSSSWLEHMYDYWGQGTQVTVSS"
  Ratio pH 7/pH 5: 3.35
- binder: "4D4 (VHH, Tested as periplasmic extract) VHH: EVQLVESGGGLVQAGDSLRLSCAASGRTFSPYVMGWFRRAPGKEREFVGGINWSGSNTWYTDSVKGRFTISRDNVKNMVYLQMNSLKPEDTAVYYCAAGSGVGMYRYERQYDYWGQGTQVTVSS"
  Ratio pH 7/pH 5: 2.76
- binder: "4C11 (albumin binder) (VHH, Tested as periplasmic extract) VHH: EVQLVESGGGLVQAGGSLRLSCAASGLSFSRYAMGWFRQAPGKQREYVAVISSSDTTYYTNSAKGRFTISRDNAENTVYLQMNSLKPEDTAVYFCAADSFVTALQTLTQINYWGQGTQVTVSS"
  Ratio pH 7/pH 5: 1.19

In one line, give reported Ratio pH 7/pH 5 of the entry 4B1 (VHH, Tested as periplasmic extract) VHH: EVQLVESGGGLVQPGGSLRLSCVAAGFTLDYYAIGWFRQAPGKEREGVSCITSDGRTYYADSVKGRFTISRDMAKKMVYLQMNSLKPEDTAVYYCAAGACMGGSGYEADFGSWGQGTQVTVSS .
0.88

In one line, give reported Ratio pH 7/pH 5 of the entry 4A9 (VHH, Tested as periplasmic extract) VHH: EVQLVESGGGLVQAGGSLRLSCEASGFTLDYSGVGWFRQAPGKERELVSCISRGGDRAGYANSVKGRFTMSRDNAKNILYLQMNSLKPEDTAVYYCAATHSGSGCYDGAIDYWGKGTLVTVSS .
0.54

In one line, give reported Ratio pH 7/pH 5 of the entry 4B5 (VHH, Tested as periplasmic extract) VHH: EVQLVESGGGLVQAGDSLRLSCAASGRTYSRNAMAWFRQAPGKEREFVAGIDWSSENTRYIDSVKGRFTISRDNAKSTMYLQMNSLKPEDTAVYYCAAGTSWGALASRLEAAYSSWGQGTQVTVSS .
2.32

In one line, give reported Ratio pH 7/pH 5 of the entry 4D3 (VHH, Tested as periplasmic extract) VHH: EVQLVKSGGGLVQPGGSLRLSCAASGFTFSHYQMSWVRQAPGKDVEWVSSISMLGGGTTYADSVKGRFTISRDNAKSTLVLQMNNLKVEDTAVYYCARGFSGNYYRADLGQGTQVTVSS .
2.42
